Target: human recombinant PDE5 (Homo sapiens)
Assay: Inhibitory effect on cGMP-PDE (PDE5 IC50, one-step assay)
Details: human recombinant PDE5, 0.15 μM 8-[H3]-cGMP, 30 minutes incubation
Property Measured: IC50

FC(F)(F)c1ccccc1NC(=S)N1CCc2c([nH]c3ccccc23)[C@H]1c1ccc2c(c1)OCO2
518 nM
S=C(NCc1ccc(Cl)c(Cl)c1)N1CCc2c([nH]c3ccccc23)[C@H]1c1ccc2c(c1)OCO2
512 nM

# input Reported IC50 for S=C(NCc1ccc2c(c1)OCO2)N1CCc2c([nH]c3ccccc23)[C@H]1c1ccc2c(c1)OCO2 : what is it?
# output 56 nM

# input Likewise for O=C(Nc1cccc2ccccc12)N1CCc2c([nH]c3ccccc23)C1c1ccccc1 (stereo not shown) ?
# output 400 nM

# input Likewise for O=C(NC(=S)N1CCc2c([nH]c3ccccc23)C1c1ccc2c(c1)OCO2)c1ccccc1 (stereo not shown) ?
# output 379 nM

# input Likewise for S=C(NCc1cccc2ccccc12)N1CCc2c([nH]c3ccccc23)[C@H]1c1ccc2c(c1)OCO2 ?
# output 119 nM

# input Likewise for S=C(NCc1ccccc1)N1CCc2c([nH]c3ccccc23)[C@H]1c1ccc2c(c1)OCO2 ?
# output 40 nM

# input Likewise for O=C(OCc1ccccc1)N1CCc2c([nH]c3ccccc23)C1c1ccc2c(c1)OCO2 (stereo not shown) [Example 15a] ?
# output 17 nM

# input Likewise for O=C(Nc1ccccc1)N1CCc2c([nH]c3ccccc23)C1c1ccccc1 (stereo not shown) ?
# output 400 nM

# input Likewise for Fc1ccc(CNC(=S)N2CCc3c([nH]c4ccccc34)[C@H]2c2ccc3c(c2)OCO3)cc1 ?
# output 122 nM

# input Likewise for S=C(NCc1cccc(Cl)c1)N1CCc2c([nH]c3ccccc23)[C@H]1c1ccc2c(c1)OCO2 ?
# output 494 nM

# input Likewise for O=C(O)CCCC(=O)N1CCc2c([nH]c3ccccc23)C1c1ccc2c(c1)OCO2 (stereo not shown) ?
# output 150 nM

# input Likewise for C[C@H](NC(=S)N1CCc2c([nH]c3ccccc23)[C@H]1c1ccc2c(c1)OCO2)c1ccccc1 ?
# output 196 nM

# input Likewise for S=C(NCc1ccccc1Cl)N1CCc2c([nH]c3ccccc23)[C@H]1c1ccc2c(c1)OCO2 ?
# output 177 nM

# input Likewise for COC(=O)CCCC(=O)N1CCc2c([nH]c3ccccc23)C1c1ccccc1 (stereo not shown) ?
# output 1 nM

# input Likewise for COc1ccc(C2c3[nH]c4ccccc4c3CCN2C(=O)CCCC(=O)O)cc1Cl (stereo not shown) ?
# output 180 nM

====

Molecular target: human recombinant PDE5 (Homo sapiens, UniProt O76074)
Test: Inhibitory effect on cGMP-PDE (PDE5 IC50, one-step assay)
Format: biochemical
Conditions: human recombinant PDE5, 0.15 μM 8-[H3]-cGMP, 30 minutes incubation
Procedure: The compounds of structural formula (I) were tested for an ability to inhibit PDE5. The ability of a compound to inhibit PDE5 activity is related to the IC50 value for the compound, i.e., the concentration of inhibitor required for 50% inhibition of enzyme activity. The IC50 value for compounds of structural formula (I) were determined using recombinant human PDE5. cGMP-PDE activity of compounds of the present invention was measured using a one-step assay adapted from Wells et al., Biochim. Biophys. […]
Property Measured: pIC50
pIC50 (log units): -log10 of the concentration in mol/L.

# example entries with known answers
O=C(C=C1CCCCC1)N1CCc2c([nH]c3ccccc23)[C@H]1c1ccc2c(c1)OCO2
6.68
O=C(OCc1ccccc1)N1CCc2c([nH]c3ccccc23)[C@H]1c1ccc2c(c1)OCO2 [Example 15b]
8.05
O=C(NC(=O)N1CCc2c([nH]c3ccccc23)[C@H]1c1ccc2c(c1)OCO2)c1ccccc1
7.31

Shifting focus to the compound that follows.
# input Reported pIC50 for S=C(NCc1ccc(Cl)cc1)N1CCc2c([nH]c3ccccc23)[C@H]1c1ccc2c(c1)OCO2 : what is it?
# output 7.29
